Below: a set of entries, each annotated with reported IC50.
- Tested on: A2780cis (ovarian, acquired resistance to cisplatin)
- test.description: MTT cytotoxicity assay
- Assay type: cell-based, human
- study.conditions: A2780cis, 48 h
experimental.endpoint: IC50 (µM)

molecule	u	value.reported
Cc1c(C)c(C)[c-](C)c1C.[Cl][Ir]1[O]c2ccccc2-c2[nH]c3ccccc3[n+]21 [7[CO,NH], [(η^5-Cp*)IrCl(κ^2-O,N-hpbim)]]	µM	42
Cc1c(C)c(C)[c-](C)c1C.[Cl-].[Cl][Ir]1[NH2+]c2ccccc2-c2[nH]c3ccccc3[n+]21 [5[CNH2,NH], [(η^5-Cp*)IrCl(κ^2-N,N-apbim)]Cl]	µM	30
N.N.[Cl][Pt][Cl] [cisPt, cisplatin, reference compound]	µM	60

###

Below: a set of entries, each annotated with reported IC50.
- System: A2780cis (ovarian, acquired resistance to cisplatin)
- test.description: MTT cytotoxicity assay
- Type: cell-based, human
- study.conditions: A2780cis, 48 h
experimental.endpoint: IC50 (µM)

molecule	tested.target	u	result.operator	value.reported
Cc1c(C)c(C)[c-](C)c1C.[Cl-].[Cl][Ir]1[n+]2ccccc2-c2[nH]c3ccccc3[n+]21 [3[N,NH], [(η^5-Cp*)IrCl(κ^2-N,N-pybim)]Cl]	A2780cis (ovarian, acquired resistance to cisplatin)	µM	=	48
Cc1c(C)c(C)[c-](C)c1C.[Cl][Ir]1[c]2ccccc2-c2[nH]c3ccccc3[n+]21 [1[C,NH], [(η^5-Cp*)IrCl(κ^2-N,C-pbim)]]	A2780cis (ovarian, acquired resistance to cisplatin)	µM	=	5
Cc1c(C)c(C)[c-](C)c1C.[Cl-].[Cl][Ir]1[NH2+]c2ccccc2-c2sc3ccccc3[n+]21 [6[CNH2,S], [(η^5-Cp*)IrCl(κ^2-N,N-apbtz)]Cl]	A2780cis (ovarian, acquired resistance to cisplatin)	µM	=	48
Cc1c(C)c(C)[c-](C)c1C.Cn1c2[n+](c3ccccc31)[Ir]([Cl])[n+]1ccccc1-2.[Cl-] [4[N,NMe], [(η^5-Cp*)IrCl(κ^2-N,N-pyMebim)]Cl]	A2780cis (ovarian, acquired resistance to cisplatin)	µM	>	100
Cc1c(C)c(C)[c-](C)c1C.[Cl][Ir]1[O]c2ccccc2-c2sc3ccccc3[n+]21 [8[CO,S], [(η^5-Cp*)IrCl(κ^2-O,N-hpbtz)]]	A2780cis (ovarian, acquired resistance to cisplatin)	µM	=	6
Cc1c(C)c(C)[c-](C)c1C.Cn1c2[n+](c3ccccc31)[Ir]([Cl])[c]1ccccc1-2 [2[C,NMe], [(η^5-Cp*)IrCl(κ^2-N,C-NMepbim)]]	A2780cis (ovarian, acquired resistance to cisplatin)	µM	=	13

###

- Test system: Calf thymus DNA
- test.description: Kinetics of covalent binding to DNA (UV-vis, NMR)
- study.conditions: values are kc x 103; CP/CD = 20
experimental.endpoint: kc x 103 (rate constant of covalent binding to DNA) (s-1)

molecule	value.reported
Cc1c(C)c(C)[c-](C)c1C.[Cl][Ir]1[O]c2ccccc2-c2[nH]c3ccccc3[n+]21 [7[CO,NH], [(η^5-Cp*)IrCl(κ^2-O,N-hpbim)]]	3.7
Cc1c(C)c(C)[c-](C)c1C.Cn1c2[n+](c3ccccc31)[Ir]([Cl])[n+]1ccccc1-2.[Cl-] [4[N,NMe], [(η^5-Cp*)IrCl(κ^2-N,N-pyMebim)]Cl]	16
Cc1c(C)c(C)[c-](C)c1C.[Cl-].[Cl][Ir]1[n+]2ccccc2-c2[nH]c3ccccc3[n+]21 [3[N,NH], [(η^5-Cp*)IrCl(κ^2-N,N-pybim)]Cl]	20
